Reported pKd by item:
target-desc: S100A2
measurement-notes: FP; direct
pKd: −log10 of the molar value.
parameter: pKd

>  <binder>
RRLLFYKYVYKR [NCX1 (254-265) peptide]

>  <measured-result>
5.26

$$$$
>  <binder>
SEGLMNVLKKIYEDG [SIP (188-202) peptide]

>  <measured-result>
3.99

$$$$
>  <binder>
NQVRPKLPLLKILHAAGAQ [MDM4 (25-43) peptide]

>  <measured-result>
4.31

$$$$
>  <binder>
VLQTWLQDLLRRGLVRAAQ [TRPM4 (129-147) peptide]

>  <measured-result>
6.00

$$$$
>  <binder>
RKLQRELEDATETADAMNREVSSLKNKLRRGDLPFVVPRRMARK [NMIIA (1894-1937) peptide]

>  <measured-result>
7.24

$$$$
